Values of IC50 reported for human RORgammaT-Ligand Binding Domain (LBD) (Homo sapiens (Human), UniProt P51449) appear below.
Include the unit after the number when you answer.

- molecule: "COc1cc(S(=O)(=O)N2C[C@H](CC(C)(CO)C(=O)O)Oc3ccc(NC(=O)OC(C)(C)C(F)(F)F)cc32)ccc1F (single isomer, unassigned) [Example 18L]"
  test.target: "human RORgammaT-Ligand Binding Domain (LBD) (Homo sapiens (Human), UniProt P51449)"
  IC50: "10.4 nM"
- molecule: "Cc1cc(S(=O)(=O)N2C[C@H](C[C@@H](C(=O)O)C3CC3)Oc3ccc(NC(=O)OC(C)(C)C(F)(F)F)cc32)ccc1F (single isomer, unassigned) [Example 10T]"
  test.target: "human RORgammaT-Ligand Binding Domain (LBD) (Homo sapiens (Human), UniProt P51449)"
  IC50: "16 nM"
- molecule: "Cc1ccc(S(=O)(=O)N2C[C@H]([C@@H]3C[C@@H]3C(=O)O)Oc3ccc(NC(=O)OC(C)(C)C(F)(F)F)cc32)cc1 (single isomer, unassigned) [Example 22F]"
  test.target: "human RORgammaT-Ligand Binding Domain (LBD) (Homo sapiens (Human), UniProt P51449)"
  IC50: "75.7 nM"
- molecule: "CC(C)(OC(=O)Nc1ccc2c(c1)N(S(=O)(=O)c1cccc(S(C)(=O)=O)c1)C[C@H](CCC(=O)O)O2)C(F)(F)F"
  test.target: "human RORgammaT-Ligand Binding Domain (LBD) (Homo sapiens (Human), UniProt P51449)"
  IC50: "15 nM"
- molecule: "C[C@@H](C[C@H]1CN(S(=O)(=O)c2ccnc(C(F)(F)F)c2)c2cc(NC(=O)OC(C)(C)C(F)(F)F)ccc2O1)C(=O)O (single isomer, unassigned)"
  test.target: "human RORgammaT-Ligand Binding Domain (LBD) (Homo sapiens (Human), UniProt P51449)"
  IC50: "14.9 nM"

Proceeding to the next molecule to report its IC50.
get_value(item= CC(C)(OC(=O)Nc1cc(F)c2c(c1)N(S(=O)(=O)c1ccnc(C(F)(F)F)c1)C[C@H](CCC(=O)O)O2)C(F)(F)F [Example 29H] , readout=IC50) returns 10.1 nM
